# System: Homo sapiens
# assay procedure: Mean change in insulin concentration in healthy white human plasma with SLCO1B1 521TC/CYP2C8*1/*3 combined genotype at 2 mg, po
# Assay type: ADME, organism-based
# cond: in vivo
parameter measured: Activity (mU/l)
Could you give me the number in mU/l? Just the number is fine.

# return Activity of CCOc1cc(CC(=O)N[C@@H](CC(C)C)c2ccccc2N2CCCCC2)ccc1C(=O)O [REPAGLINIDE] (system: Homo sapiens)
5.6

###

# assay procedure: Oral clearance in healthy white human with CYP2C8*3/*3 genotype at 2 mg, po
# Format: ADME, organism-based
# cond: in vivo
parameter measured: CL/F (mL/min/kg)
Could you give me the number in mL/min/kg? Just the number is fine.

Give CL/F for the following compound: CCOc1cc(CC(=O)N[C@@H](CC(C)C)c2ccccc2N2CCCCC2)ccc1C(=O)O [REPAGLINIDE]
8

###

# assay procedure: AUC (0 to infinity) in healthy white human with SLCO1B1 521TT/CYP2C8*1/*3 combined genotype at 2 mg, po
# Format: ADME, organism-based
# Design: dose 2 mg, route oral, time infinity
# cond: plasma
parameter measured: AUC(0-inf) (ng·h/mL)
Could you give me the number in ng·h/mL? Just the number is fine.

Give AUC(0-inf) for the following compound: CCOc1cc(CC(=O)N[C@@H](CC(C)C)c2ccccc2N2CCCCC2)ccc1C(=O)O [REPAGLINIDE]
117

###

# assay procedure: Cmax in healthy white human with SLCO1B1 521TC/CYP2C8*3/*3 combined genotype at 2 mg, po
# Format: ADME, organism-based
# Parameters: dose 2 mg, route oral
# cond: in vivo
parameter measured: Cmax (ng/mL)
Could you give me the number in ng/mL? Just the number is fine.

Give Cmax for the following molecule: CCOc1cc(CC(=O)N[C@@H](CC(C)C)c2ccccc2N2CCCCC2)ccc1C(=O)O [REPAGLINIDE]
15.3

###

# assay procedure: Oral bioavailability in human
# Assay type: ADME, organism-based
# cond: in vivo
parameter measured: bioavailability
Just the number plus its unit, please.

Give bioavailability for the following compound: CCOc1cc(CC(=O)N[C@@H](CC(C)C)c2ccccc2N2CCCCC2)ccc1C(=O)O [REPAGLINIDE]
60%

###

# assay procedure: Terminal half life in healthy white human with CYP2C8*1/*3 genotype at 2 mg, po
# Type: ADME, organism-based
# cond: in vivo, read-out: beta t1/2 (converted)
parameter measured: half-life (h)
Could you give me the number in h? Just the number is fine.

Give half-life for the following molecule: CCOc1cc(CC(=O)N[C@@H](CC(C)C)c2ccccc2N2CCCCC2)ccc1C(=O)O [REPAGLINIDE]
1.3

###

# assay procedure: Tmax in healthy white human at 2 mg, po
# Assay type: ADME, organism-based
# cond: in vivo
parameter measured: Tmax (min)
Could you give me the number in min? Just the number is fine.

Give Tmax for the following compound: CCOc1cc(CC(=O)N[C@@H](CC(C)C)c2ccccc2N2CCCCC2)ccc1C(=O)O [REPAGLINIDE]
48

###

# assay procedure: AUC (0 to infinity) in healthy white human with CYP2C8*1/*1 genotype at 2 mg, po
# Assay type: ADME, organism-based
# Parameters: dose 2 mg, time infinity, route oral
# cond: plasma
parameter measured: AUC(0-inf) (ng·h/mL)
Could you give me the number in ng·h/mL? Just the number is fine.

Give AUC(0-inf) for the following compound: CCOc1cc(CC(=O)N[C@@H](CC(C)C)c2ccccc2N2CCCCC2)ccc1C(=O)O [REPAGLINIDE]
106
